Where do these numbers come from? They come from patent US7494988B2.

# Target system: HCV NS3 serine protease (Hepatitis C virus genotype 1a, UniProt P27958)
# Sequence (P27958 1027-1657): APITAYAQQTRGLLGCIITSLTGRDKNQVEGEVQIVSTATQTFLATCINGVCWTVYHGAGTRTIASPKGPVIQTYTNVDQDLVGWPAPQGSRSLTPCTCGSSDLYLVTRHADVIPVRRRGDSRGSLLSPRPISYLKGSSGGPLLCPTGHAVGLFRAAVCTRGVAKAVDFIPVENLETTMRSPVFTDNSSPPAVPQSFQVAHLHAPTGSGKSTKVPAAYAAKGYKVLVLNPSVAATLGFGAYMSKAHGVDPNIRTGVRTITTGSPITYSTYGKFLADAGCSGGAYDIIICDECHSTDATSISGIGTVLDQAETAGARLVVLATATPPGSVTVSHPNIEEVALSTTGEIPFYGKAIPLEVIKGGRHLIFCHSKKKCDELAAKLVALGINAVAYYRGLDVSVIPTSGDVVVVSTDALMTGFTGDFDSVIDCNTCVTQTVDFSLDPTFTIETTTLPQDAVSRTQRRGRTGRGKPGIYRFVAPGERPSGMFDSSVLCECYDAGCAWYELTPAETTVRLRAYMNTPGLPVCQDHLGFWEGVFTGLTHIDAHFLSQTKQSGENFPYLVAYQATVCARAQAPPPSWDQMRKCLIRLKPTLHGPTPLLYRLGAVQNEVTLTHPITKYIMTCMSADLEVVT
pKi: −log10 of the molar value.
The entries below are paired with their reported pKi.

{"Compound": "CCC[C@H](NC(=O)C1C[C@@H](OC(=O)N2CCc3ccccc3C2)CN1C(=O)[C@@H](NC(=O)[C@@H](NC(=O)c1cnccn1)C(C)C)C(C)C)C(=O)C(=O)N1CCC1 (some centres unmarked)", "Target system": "HCV NS3 serine protease (Hepatitis C virus genotype 1a, UniProt P27958)", "Recorded metric": "pKi", "Reading": "> 6.00"}

Query block: Enter reported pKi observed with HCV NS3 serine protease (Hepatitis C virus genotype 1a, UniProt P27958) for CCC[C@H](NC(=O)C1C[C@@H](OC(=O)N2CCc3ccccc3C2)CN1C(=O)[C@@H](NC(=O)[C@@H](NC(=O)c1cnccn1)C(C)C)C(C)C)C(=O)C(=O)N1CC(Oc2ccccc2)C1 (some centres unmarked)
Result block: > 6.00
